Target: Human immunodeficiency virus type 1 reverse transcriptase (Human immunodeficiency virus 1)
Labelling field: enter Y if recorded IC50 is less than 5 µM. Enter N if it equals or exceeds that cut-off.

# count of solved cases: 6
[
  {
    "smiles_text": "Cc1ccc(NC(=O)CS(=O)(=O)c2nccc(Oc3c(C)cc(C#N)cc3C)n2)cc1",
    "group_label": "Y"
  },
  {
    "smiles_text": "Cc1cc(C#N)cc(C)c1Oc1ccnc(S(=O)(=O)CC(=O)Nc2cccc(Cl)c2)n1",
    "group_label": "Y"
  },
  {
    "smiles_text": "Cc1cc(C#N)cc(C)c1Oc1ccnc(S(=O)(=O)CC(=O)Nc2ccccc2Cl)n1",
    "group_label": "N"
  },
  {
    "smiles_text": "Cc1cc(C#N)cc(C)c1Oc1ccnc(S(=O)(=O)CC(=O)Nc2ccc(C#N)cc2F)n1",
    "group_label": "Y"
  },
  {
    "smiles_text": "COc1ccc(NC(=O)CS(=O)(=O)c2nccc(Oc3c(C)cc(C#N)cc3C)n2)cc1",
    "group_label": "Y"
  },
  {
    "smiles_text": "Cc1cccc(NC(=O)CS(=O)(=O)c2nccc(Oc3c(C)cc(C#N)cc3C)n2)c1",
    "group_label": "N"
  }
]

Record Cc1cc(C#N)cc(C)c1Oc1ccnc(S(=O)(=O)CC(=O)Nc2ccc(Cl)cc2Cl)n1 : is its IC50 strictly below 5 µM?
N
